Test system: A172
procedure.summary: MTT assay, brain cancer cell line
Assay type: cell-based
test.conditions: Homo sapiens, A 172, 120 h, NSC-30049 0 μM, read-out: IC50 of TMZ
measured.parameter: pIC50
Worth noting: pIC50 values are minus log10 of concentrations stated in mol/L.

get_value(item= Cn1nnc2c(C(N)=O)ncn2c1=O [TMZ, Temozolomide] , readout=pIC50) returns 3.81

* * *

test.target: APE1 (Homo sapiens, UniProt P27695)
Sequence (P27695 whole entry): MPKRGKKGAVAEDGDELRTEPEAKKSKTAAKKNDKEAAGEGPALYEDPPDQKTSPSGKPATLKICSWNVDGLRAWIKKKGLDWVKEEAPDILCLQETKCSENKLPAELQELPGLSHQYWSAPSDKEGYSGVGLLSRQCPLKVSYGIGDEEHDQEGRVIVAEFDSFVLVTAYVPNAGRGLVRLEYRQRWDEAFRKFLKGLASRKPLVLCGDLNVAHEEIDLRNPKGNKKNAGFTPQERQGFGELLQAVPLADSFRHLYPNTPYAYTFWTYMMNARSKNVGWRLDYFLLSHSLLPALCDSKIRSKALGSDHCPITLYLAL
measured.parameter: IC50
Dear colleague, please send the value followed by its unit.

// compound ClCC=CC[N+]12CN3CN(CN(C3)C1)C2 [NSC-30049] , assay APE1 (Homo sapiens, UniProt P27695), IC50 value: 7.2 nM

* * *

Tested on: HPAC
procedure.summary: MTT assay, pancreatic cancer cell line
Assay type: cell-based, human
test.conditions: HPAC; NSC-30049 0.5 μM; no dFdC; 72 h; read-out: IC50 of CDDP
measured.parameter: pIC50
Worth noting: pIC50 values are minus log10 of concentrations stated in mol/L.

// compound [NH2][Pt]([NH2])([Cl])[Cl] [CDDP, cisplatin] , assay HPAC, pIC50 value: 4.84

* * *

Tested on: HT29
procedure.summary: MTT assay, MMR-proficient colon cancer cell line
Assay type: cell-based
test.conditions: NSC-30049 0 μM, 48 h, read-out: IC50 of oxaliplatin
measured.parameter: IC50 (nM)
Field format: number, assumed nM, no unit text.

// molecule `O=C1[O][Pt]2([NH][C@@H]3CCCC[C@H]3[NH]2)[O]C1=O` , assay HT29, IC50 value: 920

* * *

Tested on: PANC1
procedure.summary: MTT assay, pancreatic cancer cell line
Type: cell-based, human
test.conditions: PANC1; NSC-30049 2.5 μM; 1 μM dFdC; 72 h; read-out: IC50 of CDDP
measured.parameter: pIC50
Worth noting: pIC50 values are minus log10 of concentrations stated in mol/L.

get_value(item= [NH2][Pt]([NH2])([Cl])[Cl] [CDDP, cisplatin] , readout=pIC50) returns 6.92

* * *

System: U138
procedure.summary: MTT assay, brain cancer cell line
Assay type: cell-based
test.conditions: 120 h, NSC-30049 2.5 μM, read-out: IC50 of TMZ
measured.parameter: pIC50
Worth noting: pIC50 values are minus log10 of concentrations stated in mol/L.

get_value(item= Cn1nnc2c(C(N)=O)ncn2c1=O [TMZ, Temozolomide] , readout=pIC50) returns 5.42

* * *

Tested on: Mia-PaCa2
procedure.summary: MTT assay, pancreatic cancer cell line
Assay type: cell-based, human
test.conditions: Mia-PaCa2; NSC-30049 1.0 μM; no dFdC; 72 h; read-out: IC50 of CDDP
measured.parameter: IC50 (µM)
Field format: number, assumed µM, no unit text.

get_value(item= [NH2][Pt]([NH2])([Cl])[Cl] [CDDP, cisplatin] , readout=IC50) returns 13.4

* * *

Tested on: SW480
procedure.summary: MTT assay, MMR-proficient colon cancer cell line
Type: cell-based
test.conditions: Homo sapiens, SW480, 72 h, NSC-30049 1.0 μM, read-out: IC50 of TMZ
measured.parameter: pIC50
Worth noting: pIC50 values are minus log10 of concentrations stated in mol/L.

// compound Cn1nnc2c(C(N)=O)ncn2c1=O [TMZ, Temozolomide] , assay SW480, pIC50 value: 3.78
